Reference source: patent US7214691B2

Recorded pKi, one value per entry.
Biological target: MCH receptor (Homo sapiens, UniProt Q99705)
Construct: expressed in transfected cells; host or cells: CHO cells
Sequence (Q99705 whole entry): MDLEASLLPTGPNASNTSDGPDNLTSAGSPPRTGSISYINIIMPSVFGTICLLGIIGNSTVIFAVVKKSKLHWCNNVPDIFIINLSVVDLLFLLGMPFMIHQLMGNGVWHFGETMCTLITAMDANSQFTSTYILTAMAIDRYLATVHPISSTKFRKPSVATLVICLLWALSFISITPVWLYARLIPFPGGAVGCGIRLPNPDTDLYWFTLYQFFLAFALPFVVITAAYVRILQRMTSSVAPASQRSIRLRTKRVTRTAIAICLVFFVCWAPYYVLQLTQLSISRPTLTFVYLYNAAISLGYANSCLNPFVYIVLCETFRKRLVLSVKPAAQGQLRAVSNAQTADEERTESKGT
Assay: MCH Receptor Binding Assay
Conditions: membranes from CHO cells expressing the MCH receptor, [125I]-MCH, SPA; class symbols; read-out: MCH Ki
Protocol: MCH Receptor Binding Assay: Membranes from CHO cells expressing the MCH receptor were prepared by lysing cells with 5 mM HEPES for 15 min at 4 C. Cell lysates were centrifuged ([…], 15 min) and the pellet was resuspended in 5 mM HEPES. […] Nonspecific binding was determined by including 1 μM MCH in the binding reaction. […] Plates were then analyzed in a TOPCOUNT microplate scintillation counter (Packard). Data was analyzed and Ki values were determined using GraphPad Prism.
pKi: −log10 of the molar value.

A selection of reference data follows.
molecule	observed-measurement
CN1CCC(=C(c2ccc(-c3cccc(C#N)c3)cc2)c2nc3cc(F)c(F)cc3[nH]2)CC1 [Compound 1p]	< 7.00
N#Cc1cccc(-c2ccc(C(=C3CCN(CC(=O)O)CC3)c3nc4cc(F)c(C(F)(F)F)cc4[nH]3)cc2)c1 [Compound 1z]	> 7.70
N#Cc1cccc(-c2ccc(C3(c4nc5cc(F)c(C(F)(F)F)cc5[nH]4)CC34CCN(c3nc5ccc(Cl)cc5s3)CC4)cc2)c1 (stereo not shown) [Compound 29b]	< 7.00

Briefly, pKi measured for CN(C)C(=O)N1CCC2(CC1)CC2(c1ccc(-c2cccc(C#N)c2)cc1)c1nc2cc(F)c(C(F)(F)F)cc2[nH]1 (stereo not shown) [Compound 27a] : 7.30 to 7.70

Briefly, pKi measured for N#Cc1cccc(-c2ccc(C3(c4nc5cc(Cl)c(Cl)cc5[nH]4)CC34CCN(CC3CC3)CC4)cc2)c1 (stereo not shown) [Compound 25b] : > 7.70

Briefly, pKi measured for N#Cc1cccc(-c2ccc(C(=C3CCNCC3)c3nc4cc(Cl)c(Cl)cc4[nH]3)cc2)c1 [Compound 1c] : > 7.70

Briefly, pKi measured for CN(C)Cc1cccc(-c2ccc(C(=C3CCN(CC4CC4)CC3)c3nc4cc(Cl)c(Cl)cc4[nH]3)cc2)c1 [Compound 1l] : 7.30 to 7.70

Briefly, pKi measured for CS(=O)(=O)N1CCC(=C(c2ccc(-c3cccc(C#N)c3)cc2)c2nc3cc(F)c(C(F)(F)F)cc3[nH]2)CC1 [Compound 1v] : 7.00 to 7.30

Briefly, pKi measured for Clc1cc2nc(C(=C3CCN(CC4CC4)CC3)c3ccc(-c4cccnc4)cc3)[nH]c2cc1Cl [Compound 1j] : 7.00 to 7.30

Briefly, pKi measured for O=Cc1cccc(-c2ccc(C(=C3CCN(CC4CC4)CC3)c3nc4cc(Cl)c(Cl)cc4[nH]3)cc2)c1 [Compound 1k] : 7.30 to 7.70

Briefly, pKi measured for Clc1cc2nc(C(=C3CCN(CC4CC4)CC3)c3ccc(-c4cccc(CN5CCC5)c4)cc3)[nH]c2cc1Cl [Compound 1m] : 7.00 to 7.30

Briefly, pKi measured for N#Cc1cccc(-c2ccc(C3(c4nc5cc(Cl)c(Cl)cc5[nH]4)CC34CCN(Cc3ccccc3)CC4)cc2)c1 (stereo not shown) [Compound 23c] : > 7.70

Briefly, pKi measured for N#Cc1cccc(-c2ccc(C(=C3CCNCC3)c3nc4cc(F)c(F)cc4[nH]3)cc2)c1 [Compound 1o] : 7.00 to 7.30

Briefly, pKi measured for N#Cc1cccc(-c2ccc(C3(c4nc5cc(Cl)c(Cl)cc5[nH]4)CC34CCNCC4)cc2)c1 (stereo not shown) [Compound 24b] : > 7.70

Briefly, pKi measured for CCN(CC)C(=O)N1CCC2(CC1)CC2(c1ccc(-c2cccc(C#N)c2)cc1)c1nc2cc(F)c(C(F)(F)F)cc2[nH]1 (stereo not shown) [Compound 27c] : < 7.00

Briefly, pKi measured for CC(C)S(=O)(=O)N1CCC2(CC1)CC2(c1ccc(-c2cccc(C#N)c2)cc1)c1nc2cc(Cl)c(Cl)cc2[nH]1 (stereo not shown) [Compound 26b] : < 7.00

Briefly, pKi measured for CC(C)S(=O)(=O)N1CCC2(CC1)CC2(c1ccc(-c2cccc(C#N)c2)cc1)c1nc2cc(F)c(C(F)(F)F)cc2[nH]1 (stereo not shown) [Compound 26a] : 7.00 to 7.30

Briefly, pKi measured for CS(=O)(=O)N1CCC(=C(c2ccc(-c3cccc(C#N)c3)cc2)c2nc3cc(Cl)c(Cl)cc3[nH]2)CC1 [Compound 1g] : 7.00 to 7.30
